target: CDK2 (Homo sapiens, UniProt P24941); construct: endogenous in cells; host or cells: MKN1 cells; test: CDK2 degradation in MKN1 cells (AlphaLISA); assay type: cell-based; settings: 14 h incubation
readout_kind: CDK2 degradation 14 h: Average Dmax %

- compound: "Cc1cc(S(=O)(=O)C2CC3(CCN(CC4CCN(c5cccc(NC6CCC(=O)NC6=O)c5C)CC4)CC3)C2)ccc1Nc1ncc2cc(Cl)c(=O)n(C3CCCC3)c2n1 (centres unmarked) [I-332]"
  readout_value: "A (A (>75% o))"
- compound: "Cc1cc(S(=O)(=O)NC2CCC(OC3CCN(c4ccc(C5CCC(=O)NC5=O)cc4F)CC3)CC2)ccc1Nc1ncc(C(F)(F)F)c(N2CCCC(C)(O)C2)n1 (centres unmarked) [I-942]"
  readout_value: "A (A (>75% o))"
- compound: "Cc1cc(S(=O)(=O)NCCOC2CC3(C2)CN(CCCc2ccc4c(c2)n(C)c(=O)n4C2CCC(=O)NC2=O)C3)ccc1Nc1ncc2ccc(=O)n(C3CCCC3)c2n1 (centres unmarked) [I-472]"
  readout_value: "A (A (>75% o))"
